System: Escherichia coli
Assay: Antibacterial activity against Escherichia coli ATCC 35210 after 24 hr by microdilution test
Type: functional
Conditions: ATCC 35210, 24 h
Lab note: anything with MIC below 50 µM is marked true (1); values at 50 µM or higher are marked false (0).

Examples from the recorded data:
1) O=C1N/C(=N\c2nccs2)S/C1=C\c1ccc(F)cc1 true (1)
2) O=C1N/C(=N\c2nccs2)S/C1=C\c1cccc(Br)c1 true (1)
3) O=C1N/C(=N\c2nc(-c3ccccc3)cs2)S/C1=C\c1ccccc1 false (0)
4) Cc1cnc(/N=C2\NC(=O)/C(=C/c3ccc([N+](=O)[O-])cc3)S2)s1 false (0)
5) Cc1csc(/N=C2\NC(=O)/C(=C/c3ccc(Cl)cc3)S2)n1 false (0)
6) O=C1N/C(=N\c2nccs2)S/C1=C\c1cccc(Cl)c1Cl false (0)
7) CC1(C)S[C@@H]2[C@H](NC(=O)[C@H](N)c3ccccc3)C(=O)N2[C@H]1C(=O)O false (0)
8) O=C1N/C(=N\c2nccs2)S/C1=C\c1cc(Br)ccc1O false (0)
9) O=C1N/C(=N\c2nccs2)S/C1=C\c1c(Cl)cccc1Cl true (1)

Turning now to a further record.
Qu. Say whether its MIC is strictly beneath 50 µM. Entry: O=C1N/C(=N\c2nccs2)S/C1=C\c1ccc(Cl)cc1Cl
Ans. true (1)

Taken from ChEMBL document CHEMBL2311431.
